# subject of test: GC-C (Homo sapiens, UniProt P25092)
# Sequence (P25092 24-1073 limits assumed): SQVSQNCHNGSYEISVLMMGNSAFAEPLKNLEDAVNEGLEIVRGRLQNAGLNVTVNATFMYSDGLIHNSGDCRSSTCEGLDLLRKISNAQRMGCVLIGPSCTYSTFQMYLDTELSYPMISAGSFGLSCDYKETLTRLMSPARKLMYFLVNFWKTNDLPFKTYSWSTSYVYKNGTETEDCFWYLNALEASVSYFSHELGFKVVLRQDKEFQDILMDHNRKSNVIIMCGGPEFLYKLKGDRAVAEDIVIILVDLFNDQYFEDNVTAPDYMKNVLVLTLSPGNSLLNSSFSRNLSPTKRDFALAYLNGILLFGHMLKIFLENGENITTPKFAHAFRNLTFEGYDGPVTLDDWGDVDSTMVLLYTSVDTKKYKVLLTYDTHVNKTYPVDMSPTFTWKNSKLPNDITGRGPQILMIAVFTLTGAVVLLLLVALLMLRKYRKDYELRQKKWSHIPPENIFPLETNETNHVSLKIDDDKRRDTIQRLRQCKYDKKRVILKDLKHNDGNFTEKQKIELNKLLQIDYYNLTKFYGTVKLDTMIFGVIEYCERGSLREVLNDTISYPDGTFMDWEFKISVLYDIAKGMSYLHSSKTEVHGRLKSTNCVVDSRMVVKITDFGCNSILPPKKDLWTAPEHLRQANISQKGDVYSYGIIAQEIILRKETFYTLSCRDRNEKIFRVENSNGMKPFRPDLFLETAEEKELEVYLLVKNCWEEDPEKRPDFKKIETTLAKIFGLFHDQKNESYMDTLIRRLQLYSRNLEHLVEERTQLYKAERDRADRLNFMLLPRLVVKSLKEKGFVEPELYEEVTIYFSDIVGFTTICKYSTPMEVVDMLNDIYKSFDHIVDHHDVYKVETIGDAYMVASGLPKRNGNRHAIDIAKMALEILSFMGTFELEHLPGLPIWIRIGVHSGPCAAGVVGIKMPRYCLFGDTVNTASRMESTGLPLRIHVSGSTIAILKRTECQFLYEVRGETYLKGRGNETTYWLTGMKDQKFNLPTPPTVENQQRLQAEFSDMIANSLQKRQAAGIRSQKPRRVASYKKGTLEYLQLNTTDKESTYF
# Assay type: cell-based
# condition info: cGMP response in T84 cells
Positions of bridges follow the written chain, without caps; N, C: chain ends. Residues, ends and D or L forms follow the SMILES beside them.
Listing of entries alongside the reported Ratio EC50 pH 8/EC50 pH 5.
Respond numerically, and do not add a unit to the figure.

See these solved cases before continuing.
[[record]]
molecule = "CC(C)C[C@@H]1NC(=O)[C@H](CCC(=O)O)NC(=O)[C@@H]2CSSC[C@@H]3NC(=O)[C@H](C)NC(=O)[C@@H]4CCCN4C(=O)[C@H](CC(N)=O)NC(=O)[C@H](CSSC[C@H](N)C(=O)N2)NC(=O)[C@H](CSSC[C@@H](C(=O)N[C@@H](Cc2ccc(O)cc2)C(=O)O)NC(=O)CNC(=O)[C@H]([C@@H](C)O)NC3=O)NC1=O [Peptide 1, CCELCCNPACTGCY] (H-CCELCCNPACTGCY-OH; disulfide 1-6, 2-10, 5-13 (inferred); N-terminus and C-terminus assumed)"
endpoint_value = 8.5

[[record]]
molecule = "C[C@@H]1NC(=O)[C@@H]2CCCN2C(=O)[C@H](CC(N)=O)NC(=O)[C@@H]2CSSC[C@H](NC(=O)[C@H](CC(=O)O)NC(=O)[C@H](CC(=O)O)NC(=O)[C@@H]3CCCN3)C(=O)N[C@H]3CSSC[C@H](NC1=O)C(=O)N[C@@H]([C@@H](C)O)C(=O)NCC(=O)N[C@H](C(=O)N[C@@H](Cc1ccc(O)cc1)C(=O)O)CSSC[C@H](NC(=O)[C@H](Cc1ccc(O)cc1)NC(=O)[C@H](CCC(=O)O)NC3=O)C(=O)N2 [Peptide 8, PDDCCEYCCNPACTGCY] (H-PDDCCEYCCNPACTGCY-OH; disulfide 4-9, 5-13, 8-16)"
endpoint_value = 58.2


Query (molecule): CC(C)C[C@@H]1NC(=O)[C@H](CCC(=O)O)NC(=O)[C@@H]2CSSC[C@@H]3NC(=O)[C@H](C)NC(=O)[C@@H]4CCCN4C(=O)[C@H](CC(N)=O)NC(=O)[C@H](CSSC[C@H](NC(=O)[C@H](CC(=O)O)NC(=O)[C@H](CC(=O)O)NC(=O)[C@@H](N)CC(=O)O)C(=O)N2)NC(=O)[C@H](CSSC[C@@H](C(=O)N[C@@H](Cc2ccc(O)cc2)C(=O)O)NC(=O)CNC(=O)[C@H]([C@@H](C)O)NC3=O)NC1=O [Peptide 17, DDDCCELCCNPACTGCY] ; field requested: Ratio EC50 pH 8/EC50 pH 5
386.2

###

# subject of test: GC-C (Homo sapiens)
# Format: binding
Positions of bridges follow the written chain, without caps; N, C: chain ends. Residues, ends and D or L forms follow the SMILES beside them.
metric: Ratio Ki pH 8/Ki pH 5
Please give only the number in your answer, with no unit.

Answered cases to consult:
[[record]]
compound = "C[C@@H]1NC(=O)[C@@H]2CCCN2C(=O)[C@H](CC(N)=O)NC(=O)[C@@H]2CSSC[C@H](NC(=O)[C@H](CC(=O)O)NC(=O)[C@H](CC(=O)O)NC(=O)[C@@H](N)CC(=O)O)C(=O)N[C@H]3CSSC[C@H](NC1=O)C(=O)N[C@@H]([C@@H](C)O)C(=O)NCC(=O)N[C@H](C(=O)N[C@@H](Cc1ccc(O)cc1)C(=O)O)CSSC[C@H](NC(=O)[C@H](Cc1ccc(O)cc1)NC(=O)[C@H](CCC(=O)O)NC3=O)C(=O)N2 [Peptide 5, DDDCCEYCCNPACTGCY]"
metric = "Ratio Ki pH 8/Ki pH 5"
endpoint_value = 5.52

[[record]]
compound = "CC(C)C[C@@H]1NC(=O)[C@H](CCC(=O)O)NC(=O)[C@@H]2CSSC[C@@H]3NC(=O)[C@H](C)NC(=O)[C@@H]4CCCN4C(=O)[C@H](CC(N)=O)NC(=O)[C@H](CSSC[C@H](N)C(=O)N2)NC(=O)[C@H](CSSC[C@@H](C(=O)N[C@@H](Cc2ccc(O)cc2)C(=O)O)NC(=O)CNC(=O)[C@H]([C@@H](C)O)NC3=O)NC1=O [Peptide 1, CCELCCNPACTGCY] (H-CCELCCNPACTGCY-OH; disulfide 1-6, 2-10, 5-13 (inferred); N-terminus and C-terminus assumed)"
metric = "Ratio Ki pH 8/Ki pH 5"
endpoint_value = 0.69

[[record]]
compound = "CC(C)C[C@@H]1NC(=O)[C@H](CCC(=O)O)NC(=O)[C@@H]2CSSC[C@@H]3NC(=O)[C@H](C)NC(=O)[C@@H]4CCCN4C(=O)[C@H](CC(N)=O)NC(=O)[C@H](CSSC[C@H](NC(=O)[C@H](CC(=O)O)NC(=O)[C@H](CC(=O)O)NC(=O)[C@@H](N)CC(N)=O)C(=O)N2)NC(=O)[C@H](CSSC[C@@H](C(=O)N[C@@H](Cc2ccc(O)cc2)C(=O)O)NC(=O)CNC(=O)[C@H]([C@@H](C)O)NC3=O)NC1=O [Peptide 11, NDDCCELCCNPACTGCY]"
metric = "Ratio Ki pH 8/Ki pH 5"
endpoint_value = 6.43


Need Ratio Ki pH 8/Ki pH 5 of C[C@H](N)C(=O)N[C@@H](CC(=O)O)C(=O)N[C@@H](CC(=O)O)C(=O)N[C@H]1CSSC[C@@H]2NC(=O)[C@@H]3CSSC[C@@H](C(=O)N[C@@H](Cc4ccc(O)cc4)C(=O)O)NC(=O)CNC(=O)[C@H]([C@@H](C)O)NC(=O)[C@H](CSSC[C@H](NC1=O)C(=O)N[C@@H](CCC(=O)O)C(=O)N[C@@H](Cc1ccc(O)cc1)C(=O)N3)NC(=O)[C@H](C)NC(=O)[C@@H]1CCCN1C(=O)[C@H](CC(N)=O)NC2=O [Peptide 9, ADDCCEYCCNPACTGCY] , thanks.
1.29

Follow-up entry: C[C@@H]1NC(=O)[C@@H]2CCCN2C(=O)[C@H](CC(N)=O)NC(=O)[C@@H]2CSSC[C@H](N)C(=O)N[C@H]3CSSC[C@H](NC1=O)C(=O)N[C@@H]([C@@H](C)O)C(=O)NCC(=O)N[C@H](C(=O)N[C@@H](Cc1ccc(O)cc1)C(=O)O)CSSC[C@H](NC(=O)[C@H](Cc1ccccc1)NC(=O)[C@H](CCC(=O)O)NC3=O)C(=O)N2 [Peptide 2, CCEFCCNPACTGCY] (H-CCEFCCNPACTGCY-OH; disulfide 1-6, 2-10, 5-13)
0.97
